- Test system: ACHN renal
- assay overview: NCI tumour cell line growth inhibition, 48 h; in the data active = GI50 below about 0.43 µM; inactive = the rest
Thanks in advance; please answer with one of these: yes (active), no (inactive)

Consider the following illustrative entries.
[
  {
    "compound": "CCOC(=O)[C@@H](C)C[C@H](Cc1ccccc1)NC(=O)c1nc([C@@H](C[C@H](C(C)C)N(C)C(=O)[C@@H](NC(=O)[C@H]2CCCCN2C)C(C)C)OC(C)=O)sc1CCOCc1ccccc1",
    "assigned category": "yes"
  },
  {
    "compound": "C[C@]12CCc3nc(Nc4cccc(O)c4)sc3C1=CC[C@@H]1[C@@H]2CC[C@]2(C)/C(=N\\NC(N)=S)CC[C@@H]12",
    "assigned category": "no"
  },
  {
    "compound": "CCOC(=O)c1ccccc1OC(=O)NNc1ccccc1",
    "assigned category": "no"
  },
  {
    "compound": "CO/C=C/C(=O)c1cc2cnc3c(=N)cc(NC(=O)C(C)C)c([nH]1)c23",
    "assigned category": "yes"
  }
]

Query compound follows.
Which outcome was entered for the compound CC(C)(C)N1CCC1CN (stereo not given) in this test?
no
